# Test system: HIV-IIIb (wildtype)
# Assay Method Text: Antiviral assay in MT4 cells, HIV-IIIb wildtype
# Format: cell-based, HIV-1
# Recorded Conditions: Human immunodeficiency virus 1, IIIB, MT4, 120 h, read-out: WT EC50
pEC50: −log10 of the molar value.
Property Measured: pEC50

Molecule	Property Measured	Data Value
COC1CN(c2nn(C)c3ccc(-c4nc5cc(C)c([C@H](OC(C)(C)C)C(=O)O)c(-c6ccc(Cl)cc6)c5s4)cc23)C1	pEC50	8.15
CC(=O)N1CC(N2CCC(c3c4nc(-c5nc6cc(C)c([C@H](OC(C)(C)C)C(=O)O)c(-c7ccc(Cl)cc7)c6s5)ccc4nn3C(F)F)CC2)C1	pEC50	7.92
COCCN1CCCC(c2nn(C)c3ccc(-c4nc5cc(C)c([C@H](OC(C)(C)C)C(=O)O)c(-c6ccc(Cl)cc6)c5s4)cc23)C1 (stereo partly drawn)	pEC50	8.05
Cc1cc2nc(-c3ccc4c(c3)c(N3CCN5C(=O)COC[C@@H]5C3)nn4C)sc2c(-c2ccc(Cl)cc2)c1[C@H](OC(C)(C)C)C(=O)O	pEC50	8.15
CCN1CCC(c2nn(C)c3ccc(-c4nc5cc(C)c([C@H](OC(C)(C)C)C(=O)O)c(-c6ccc(Cl)cc6)c5s4)cc23)CC1	pEC50	8.10
COC1CCN(c2nn(C)c3ccc(-c4nc5cc(C)c([C@H](OC(C)(C)C)C(=O)O)c(-c6ccc(Cl)cc6)c5s4)cc23)CC1	pEC50	7.92
CCN1CCN(c2nn(C)c3ccc(-c4nc5cc(C)c([C@H](OC(C)(C)C)C(=O)O)c(-c6ccc(Cl)cc6)c5s4)cc23)C(=O)C1	pEC50	7.82
Cc1cc2nc(-c3ccc4c(c3)c(C3CCN([C@@H]5CCN(C)C5)CC3)nn4C)sc2c(-c2ccc(Cl)cc2)c1[C@H](OC(C)(C)C)C(=O)O	pEC50	7.82
Cc1cc2nc(-c3ccc4c(c3)c(N3CCN5CCOC[C@@H]5C3)nn4C)sc2c(-c2ccc(Cl)cc2)c1[C@H](OC(C)(C)C)C(=O)O	pEC50	8.00
CC(=O)N1CC(N2CCC(c3nn(C)c4ccc(-c5nc6cc(C)c([C@H](OC(C)(C)C)C(=O)O)c(-c7ccc(Cl)cc7)c6s5)cc34)CC2)C1	pEC50	7.92
Cc1cc2nc(-c3ccc4c(c3)c(N3CCN(C5COC5)CC3)nn4C)sc2c(-c2ccc(Cl)cc2)c1[C@H](OC(C)(C)C)C(=O)O	pEC50	7.96
Cc1cc2nc(-c3ccc4c(c3)c(C3CN(C(C)C)C3)nn4C)sc2c(-c2ccc(Cl)cc2)c1[C@H](OC(C)(C)C)C(=O)O	pEC50	8.22

----------
# Tested on: HIV-IIIb IN T174I BT
# Assay Method Text: Antiviral assay in MT4 cells, HIV-IIIb IN T174I BT virus (from viral breakthrough)
# Type: cell-based, HIV-1
# Recorded Conditions: Human immunodeficiency virus 1, IIIB, MT4, 120 h, read-out: T174I BT EC50, MT4 cells, HIV-IIIb IN T174I BT (viral breakthrough), 5 days, CellTiter-Glo
Mark fulfilled for EC50 under 300 nM, not fulfilled if at or over.

Compound	Assigned Class
Cc1cc2nc(-c3ccc4c(c3)c(N3CC(N(C)C)C3)nn4C)sc2c(-c2ccc(Cl)cc2)c1[C@H](OC(C)(C)C)C(=O)O [Compound 90]	not fulfilled
Cc1cc2nc(-c3ccc4c(c3)c(C3CN(C)C3)nn4C)sc2c(-c2ccc(Cl)cc2)c1[C@H](OC(C)(C)C)C(=O)O [Compound 57]	not fulfilled
Cc1cc2nc(-c3ccc4c(c3)c(C3CCN(S(C)(=O)=O)CC3)nn4C)sc2c(-c2ccc(Cl)cc2)c1[C@H](OC(C)(C)C)C(=O)O [Compound 25]	not fulfilled
CCn1nc(C2CCN(C3CN(C(=O)OC)C3)CC2)c2nc(-c3nc4cc(C)c([C@H](OC(C)(C)C)C(=O)O)c(-c5ccc(Cl)cc5)c4s3)ccc21 [Compound 179]	fulfilled
COC(=O)N1CC(N2CCC(c3nn(C(F)F)c4ccc(-c5nc6cc(C)c([C@H](OC(C)(C)C)C(=O)O)c(-c7ccc(Cl)cc7)c6s5)nc34)CC2)C1 [Compound 14]	fulfilled
